Below: a set of entries, each annotated with reported Relative Fluorescence Intensity.
- assayDetails: Relative fluorescence intensity of fluorescent latex dispersion
- Type: physicochemical
- testConditions: compound amount 100 μmol/g latex solids, relative to 6 μmol/g of the same compound; at emission maximum wavelength; dispersion diluted 200 times

{"compound": "CC1=C(C(=O)OC2C(C(C)(C)C)CC(C)CC2C(C)(C)C)C(N)=[N+]2C1=C(C)c1c(C)c(C(=O)OC3C(C(C)(C)C)CC(C)CC3C(C)(C)C)c(N)n1[B-]2(F)F (stereo not shown)", "Relative Fluorescence Intensity": "12 times as large as No. 101"}
{"compound": "CC1=C(C(=O)OC2C(C(C)(C)C)CC(C)CC2C(C)(C)C)C(N)=[N+]2C1=C(C)c1c(C)c(C(=O)OC3C(C(C)(C)C)CC(C)CC3C(C)(C)C)c(N)n1[B-]2(F)C(F)(F)F (stereo not shown)", "Relative Fluorescence Intensity": "12 times as large as No. 301"}

Suppose we examine the compound CCOC(=O)C1=C(C)C2=C(c3cc(-c4ccc(C(C)(C)C)cc4)cc(-c4ccc(C(C)(C)C)cc4)c3)c3c(C)c(C(=O)OCC)c(C)n3[B-](F)(F)[N+]2=C1C [Comparative Compound (1), reference compound] ; what Relative Fluorescence Intensity value has been reported? 6 times as large as No. c11

Can you handle CC1CC(C(C)(C)C)C(OC(=O)C2=C(c3ccccc3)C3=Cc4c(-c5ccccc5)c(C(=O)OC5C(C(C)(C)C)CC(C)CC5C(C)(C)C)c(N)n4[B-](F)(F)[N+]3=C2N)C(C(C)(C)C)C1 (stereo not shown) next? 10 times as large as No. 201
